System Name: full-length human PLD1 (Homo sapiens (Human), UniProt Q13393)
Sequence (Q13393 other isoform, or with tags, fused parts or gaps): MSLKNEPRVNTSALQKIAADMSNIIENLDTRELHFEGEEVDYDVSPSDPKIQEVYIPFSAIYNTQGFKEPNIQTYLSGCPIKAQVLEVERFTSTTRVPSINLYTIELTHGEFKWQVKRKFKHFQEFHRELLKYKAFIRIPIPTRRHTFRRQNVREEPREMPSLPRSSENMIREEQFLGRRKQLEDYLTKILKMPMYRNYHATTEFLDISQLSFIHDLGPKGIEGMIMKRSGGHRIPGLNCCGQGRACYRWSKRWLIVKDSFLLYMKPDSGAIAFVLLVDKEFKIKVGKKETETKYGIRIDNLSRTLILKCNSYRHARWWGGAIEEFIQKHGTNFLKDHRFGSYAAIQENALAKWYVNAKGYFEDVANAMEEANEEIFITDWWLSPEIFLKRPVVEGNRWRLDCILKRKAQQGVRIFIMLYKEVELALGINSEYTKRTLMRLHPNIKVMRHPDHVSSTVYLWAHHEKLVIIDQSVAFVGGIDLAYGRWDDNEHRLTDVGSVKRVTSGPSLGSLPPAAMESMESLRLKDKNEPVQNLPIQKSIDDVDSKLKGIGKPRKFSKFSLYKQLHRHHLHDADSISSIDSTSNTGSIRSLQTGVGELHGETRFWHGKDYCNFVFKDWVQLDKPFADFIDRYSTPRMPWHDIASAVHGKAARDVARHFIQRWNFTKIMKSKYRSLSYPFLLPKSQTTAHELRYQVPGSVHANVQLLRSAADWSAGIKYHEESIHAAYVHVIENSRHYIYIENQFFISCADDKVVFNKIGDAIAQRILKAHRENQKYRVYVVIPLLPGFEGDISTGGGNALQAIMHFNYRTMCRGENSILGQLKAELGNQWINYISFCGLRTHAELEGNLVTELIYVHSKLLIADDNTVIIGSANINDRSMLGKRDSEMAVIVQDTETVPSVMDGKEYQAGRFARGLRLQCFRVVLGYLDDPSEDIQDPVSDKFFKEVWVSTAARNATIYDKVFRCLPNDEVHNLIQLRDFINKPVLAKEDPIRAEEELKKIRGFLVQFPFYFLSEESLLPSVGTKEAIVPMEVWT
Protocol Summary: Evaluation of human PLD1 enzyme inhibitory activity (Amplex Red / choline oxidase fluorescence)
Type: biochemical
Condition: full-length human PLD1 enzyme; read-out: PLD1 IC50
pIC50: −log10 of the molar value.
Measured pIC50 values are reported for all entries that follow.
Reported Endpoint: pIC50

CNC(=O)C(=O)N[C@@H](C)C[C@H]1CC[C@]2(CC1)OC(=O)NN=C2c1cnc(C2CC2)cc1C : 7.89
CNC(=O)C(=O)N[C@@H](C)CN1CCC2(CC1)OC(=O)NN=C2c1cccn2nccc12 : 6.82
COc1cc(C)c(C2=NNC(=O)O[C@]23CC[C@@H](C[C@H](C)NC(=O)N2CCc4nocc4C2)CC3)cn1 : 7.51
CNC(=O)C(=O)N[C@@H](C)C[C@H]1CC[C@]2(CC1)OC(=O)NN=C2c1cnc(OC)cc1C : 7.57
CC(C)=CC(=O)N[C@@H](C)CN1CCC2(CC1)OC(=O)NN=C2c1cc(C#N)ccc1Br : 6.13
C[C@@H](C[C@H]1CC[C@]2(CC1)OC(=O)NN=C2c1ccc(F)cc1Br)NC(=O)c1cn(C)nn1 : 7.77
CNC(=O)C(=O)N[C@@H](C)C[C@]1(C#N)CC[C@@]2(CC1)OC(=O)NN=C2c1cc(C#N)ccc1Br : 7.68
Cc1cc(C(=O)N[C@@H](C)C[C@H]2CC[C@]3(CC2)OC(=O)NN=C3c2ccc(C#N)cc2C)[nH]n1 : 7.57
CNC(=O)C(=O)N[C@@H](C)C[C@H]1CC[C@]2(CC1)OC(=O)NN=C2c1ccc(F)cc1C1CC1 : 7.74
C[C@H](NC(=O)c1cnn(C)c1)[C@H](C)[C@H]1CC[C@]2(CC1)OC(=O)NN=C2c1cc(C#N)ccc1Br : 7.41
